Kindly find below pIC50 information for ITK (Homo sapiens) taken from the literature.
pIC50: −log10 of the molar value.

Under ITK (Homo sapiens): pIC50 value of C=CC(=O)N1CC(n2nc(-c3cc(O)cc(F)c3)c3c(N)ncnc32)Cc2cc(C)ccc21 (stereo not shown) ?
< 4.00

Under ITK (Homo sapiens): pIC50 value of CC#CC(=O)N1[C@@H]2COC[C@@H]2C[C@H]1c1nc(-c2ccc(C(=O)Nc3ccccn3)cc2)c2c(N)nccn12 ?
< 6.00

Under ITK (Homo sapiens): pIC50 value of C=CC(=O)Nc1cncc(-c2cnc3[nH]cc(-c4ccc(=O)n(C)c4)c3c2)c1 ?
≥ 6.00

Under ITK (Homo sapiens): pIC50 value of OC1CCN(CCCOc2ccc3[nH]c(-c4n[nH]c5ccsc45)cc3c2)CC1 ?
7.39

Under ITK (Homo sapiens): pIC50 value of C=CC(=O)N1CC2CC1C(n1nc(-c3ccc(C(=O)Nc4ccccn4)cc3)c3c(N)ncnc31)C2 (stereo not shown) ?
< 6.30

More entries:
Under ITK (Homo sapiens): pIC50 value of C=CC(=O)Nc1cccc(-c2cc(CN3CCOCC3)cc(NC(=O)CC)n2)c1 ?
< 6.00

Under ITK (Homo sapiens): pIC50 value of C=CC(=O)Nc1cccc(Nc2nc(Nc3ccc(OCC(C)(C)O)cc3)ncc2F)c1 ?
> 8.00

Under ITK (Homo sapiens): pIC50 value of C=CC(=O)N1CCC(n2nc(-c3ccc(Oc4ccccc4)cc3)c3c(N)ncc(-c4cnn(C)c4)c32)CC1 ?
< 6.00

Under ITK (Homo sapiens): pIC50 value of O=C(CNc1cc(Cl)cc(Cl)c1)N1CC2CC(Nc3ncnc4[nH]ccc34)C1C2 (stereo not shown) ?
< 5.00

Under ITK (Homo sapiens): pIC50 value of CS(=O)(=O)c1cccc(-c2cnc3[nH]cc(C(=O)c4cc(O)ccc4F)c3c2)c1 ?
≥ 5.00
